Data origin, for the record: ChEMBL document CHEMBL1201862

I'd appreciate it if you could supply GI50 values for the items below.
Tested on: HOP-92
assay-remarks: NCI tumour cell line growth inhibition, 48 h
Activity calls are given as the source filed them. Rule as the data show it: active = GI50 up to about 1.1 µM and inactive = higher.

Here's what some known entries look like.
{"columns": ["compound", "GI50"],
 "data": [
  ["COc1ccc(C2=NNC(=O)OC2c2ccccc2)cc1 (stereo not given)", "43.6 µM (inactive)"],
  ["Cc1cc2c(cc1-c1cc3c(cc1C)C(C(C)C)=C(O)C(=O)/C3=C\\Nc1nc(-c3ccccc3)cs1)/C(=C/Nc1nc(-c3ccccc3)cs1)C(=O)C(O)=C2C(C)C", "18.8 µM (inactive)"],
  ["N#CC(C(=N/O)/C(=N\\O)C(C#N)c1ccccc1)c1ccccc1 (stereo not given)", "> 100 µM (inactive)"],
  ["COc1c(O)cc2c3c(ccnc13)NC=C2", "> 100 µM (inactive)"]
]}

Turning now to a further compound:
If you can, please state the reported GI50 value of CC[C@@]1(C)CCC2c3ccc(O)cc3CC[C@H]2C1C (stereo not given in full) .
6.85 µM (inactive)

====

System: OVCAR-3
assay-remarks: NCI tumour cell line growth inhibition, 48 h
The source made the active and inactive calls. No stated cut-off is given here; in the data, active = GI50 up to about 1.1 µM and inactive = higher.
measurement-type: GI50

Completed entries (count: 2):
{"columns": ["compound", "reported-measurement"],
 "data": [
  ["Cc1cccc2c(=O)c3c(O)cc(O)cc3n(C)c12", "> 100 µM (inactive)"],
  ["C=CCOC1OC(CS(=O)(=O)O)C(O)C(O)C1O (stereo not drawn)", "> 100 µM (inactive)"]
]}

Endpoint output: GI50 of "N/C1=C/C(=O)NC(=O)c2c(c3ccccc3oc2=O)C1" . Value?
> 100 µM (inactive)

====

Test system: SF-295
assay-remarks: NCI tumour cell line growth inhibition, 48 h
Active and inactive are the calls of the source. No stated cut-off is given here; in the data, active = GI50 up to about 1.1 µM and inactive = higher.
Valid outcomes are listed here; reply with one: 1 for active, -1 for inactive

{"columns": ["molecule", "label-value"],
 "data": [
  ["CC(=O)NS(=O)(=O)c1ccc(NC(=O)COC(=O)c2cccc3c(=O)c4ccccc4[nH]c23)cc1", -1],
  ["COC(=O)C1=COc2c(n(C)c3ccccc23)-c2ccccc21", -1],
  ["O=C(Nc1ccc([N+](=O)[O-])cc1)C(=O)C(C(=O)c1ccccc1F)C1OC(=O)c2ccccc21 (stereo unspecified)", -1],
  ["CC12CCC3c4ccc(O)cc4CCC3C1C/C(=N\\O)C2O (stereo unspecified)", -1]
]}

Assay outcome for "C[N+](C)(C)CCOC(=O)/C=C/c1c[nH]cn1" : what was it?
-1

Tell me the recorded outcome of this test for "O=C(CC(=O)c1cccc([N+](=O)[O-])c1)C(=O)Nc1ccccc1" .
-1

Entry COC(=O)[C@@H]1[C@@H](c2cccc(Cl)c2)[C@H](C(=O)OC)C2(C[C@@]1(C)O)NCCS2 (stereo partly specified) : call = ?
-1

Could you kindly confirm the outcome this assay logged for "COc1ccc(/N=C\c2ccc(N(CCC#N)S(=O)(=O)c3ccccc3)cc2C)cc1" ?
-1

Recorded test outcome, item CC1(C)CCCC2(C)C3=C(CCC12)C(=O)OC3 (stereo unspecified)
-1

====

Test system: PC-3
assay-remarks: NCI tumour cell line growth inhibition, 48 h
Calls of active or inactive are those of the source. No stated cut-off is given here; in the data, active = GI50 up to about 1.1 µM and inactive = higher.
measurement-type: GI50

{"columns": ["compound", "GI50"],
 "data": [
  ["CC(C)NCCC(O)c1cc2ccccc2o1 (stereo not given)", "> 100 µM (inactive)"]
]}

Report GI50 for each item below.
1. O=C1NN=C2C=C(c3ccc(Cl)cc3)CC(c3cccc(Br)c3)C12 (stereo not given)
2. COC(=O)N/N=C(\C)C(CN1CCOCC1)C(c1ccccc1)c1cc2ccccc2oc1=O (stereo not given)
3. O=C(Nc1nc(C23CC4CC(CC(C4)C2)C3)cs1)c1c(O)c2ccccc2[nH]c1=O
4. CC(C)CC1C(=O)NCCC(NC(=O)C(N)Cc2ccc(O)cc2)C(=O)NC(Cc2ccccc2)C(=O)NC(Cc2ccccc2)NC1=O (stereo not given)
5. Nc1ncnc2ccc(Sc3ccc4ncnc(N)c4c3)cc12
6. COc1cc(C(=O)N(C(=S)OC23CC4CC(CC(C4)C2)C3)c2ccccc2)cc(OC)c1OC

["53.7 µM (inactive)", "> 100 µM (inactive)", "> 100 µM (inactive)", "> 100 µM (inactive)", "> 100 µM (inactive)", "22.6 µM (inactive)"]

====

System: OVCAR-3
assay-remarks: NCI tumour cell line growth inhibition, 48 h
Activity calls are given as the source filed them. Rule as the data show it: active = GI50 up to about 1.1 µM and inactive = higher.
# valid calls are active, inactive; nothing else

{"columns": ["compound", "target-under-test", "label-value"],
 "data": [
  ["CC(C)(C)OC(=O)NC(CS(=O)(=O)O)C(=O)O (stereo unspecified)", "OVCAR-3", "inactive"],
  ["CCOc1ccc(NC(=S)N/C=C(/C(C)=O)C(=O)Nc2ccccc2C)cc1", "OVCAR-3", "inactive"],
  ["CCOC(=O)/C(=C/c1ccc(C(=O)OC)cc1)N(CC)CC", "OVCAR-3", "inactive"]
]}

Moving on to another compound below.
For "CN(C)C(=O)Oc1c(Br)cc(Br)cc1C(=O)OCc1ccccc1" , what call appears in the results of this test?
inactive

====

System: HCT-116
assay-remarks: NCI tumour cell line growth inhibition, 48 h
Activity calls are given as the source filed them. Cut-off read from the data, not from the text of the source: active = GI50 up to about 1.1 µM and inactive = higher.
Reply using exactly one outcome from active, inactive

{"columns": ["molecule", "label-value"],
 "data": [
  ["C[C@]12CC[C@@H]3c4ccc(O)cc4CC[C@H]3[C@@H]1CC[C@@H]2OC(=O)CCc1ccccc1", "inactive"],
  ["Nc1nc(Cl)cc(NCC2(CO)CCC(Cc3ccccc3)C2)n1 (stereo not drawn)", "inactive"],
  ["CC1=NNC(=O)C1C1C=C(c2c[nH]c3ccccc23)OC1=O (stereo not drawn)", "inactive"],
  ["Cc1cc2c(cc1-c1cc3c(cc1C)C(C(C)C)=C(O)C(=O)/C3=C\\Nc1nc(-c3ccccc3)cs1)/C(=C/Nc1nc(-c3ccccc3)cs1)C(=O)C(O)=C2C(C)C", "inactive"],
  ["CCCCN(CCCC)CC(C(=O)Nc1ccc([N+](=O)[O-])cc1[N+](=O)[O-])/C(C)=N\\NC(=O)C[N+](C)(C)C (stereo not drawn)", "inactive"]
]}

How was "O=C(O)CCc1nc(-c2ccccc2)c(-c2ccccc2)o1" classified in this test?
inactive

====

System: OVCAR-8
assay-remarks: NCI tumour cell line growth inhibition, 48 h
Activity calls are given as the source filed them. Cut-off read from the data, not from the text of the source: active = GI50 up to about 1.1 µM and inactive = higher.
measurement-type: GI50

Use these answered entries as a reference point.
{"columns": ["molecule", "target-under-test", "GI50"],
 "data": [
  ["CCCCCC(C(O)C#N)C(O)(C(F)(F)F)C(F)(F)F (stereo not drawn)", "OVCAR-8", "> 10 µM (inactive)"],
  ["O=c1oc2ccc([N+](=O)[O-])cc2c(Nc2ccc3c(c2)Oc2ccccc2O3)c1[N+](=O)[O-]", "OVCAR-8", "26.8 µM (inactive)"],
  ["Cc1c(C(=O)c2ccc(N)c3ccccc23)c2ccccc2n1CCN1CCOCC1", "OVCAR-8", "31.2 µM (inactive)"],
  ["Cc1c2nc3ccccc3sc-2cc(=O)c1C", "OVCAR-8", "49.7 µM (inactive)"],
  ["CC1(C)C(=O)N(O)C(C)(C)N1N=O", "OVCAR-8", "> 10 µM (inactive)"]
]}

Batch lookup, GI50 per entry.
1. Nc1nc2sc3ccccc3c(=O)n2n1
2. C#CC1(O)CCCCCCCCC2(CCCCCCCC1)OCCO2
3. CC(C)(C)[Si](C)(C)OCC1OC(n2cc(I)c(=O)[nH]c2=O)C(O[Si](C)(C)C(C)(C)C)C1O[Si](C)(C)C(C)(C)C (stereo not drawn)

["> 100 µM (inactive)", "19.4 µM (inactive)", "12.7 µM (inactive)"]

====

Exercise: state measured GI50 for each of the compounds provided.
Test system: LOX IMVI
assay-remarks: NCI tumour cell line growth inhibition, 48 h
Activity calls are given as the source filed them. Rule as the data show it: active = GI50 up to about 1.1 µM and inactive = higher.

{"columns": ["compound", "reported-measurement"],
 "data": [
  ["O=C(CCCn1cnc([N+](=O)[O-])n1)NCCn1ccnc1[N+](=O)[O-]", "> 100 µM (inactive)"],
  ["CCOC(=O)c1cc(C2CCN(Cc3ccccc3)C2=O)c(C(=O)C(=[N+]=[N-])C(C)=O)[nH]1 (stereo not given)", "> 100 µM (inactive)"],
  ["CC1=NNC(=O)C1C1C=C(c2c[nH]c3ccccc23)OC1=O (stereo not given)", "> 100 µM (inactive)"]
]}

// batch mode: one GI50 value per listed entry
1. Cc1c(C(=O)c2ccc(N)c3ccccc23)c2ccccc2n1CCN1CCOCC1
2. O=C(CN1C(=O)c2ccccc2C1=O)C(O)CN1C(=O)c2ccccc2C1=O (stereo not given)

["22.5 µM (inactive)", "92.3 µM (inactive)"]

For every item in the list below, what is its measured GI50?
1. Cc1ccc(-c2ccc(Nc3c4ccccc4nc4ccccc34)cc2)cn1
2. COc1ccc2c(c1)[n+]([O-])c(-c1ccc(OC)c(OC)c1)c(N)[n+]2[O-]

2.71 µM (inactive)
> 100 µM (inactive)

List GI50 for every entry below, keeping the order given.
1. CCOC(=O)/C(=C/c1ccc(C(=O)OC)cc1)N(CC)CC
2. CC1(C)C(=NNC(=S)NN)C(C)(C)C1=NNC(=S)NN
3. C/C(=N\NC(=S)NCCCCNC(=S)N/N=C(\C)c1ccccn1)c1ccccc1

1: 63.2 µM (inactive); 2: > 100 µM (inactive); 3: 0.845 µM (active)
